Test system: NCI/ADR-RES ovarian
MEASUREMENT DESCRIPTION: NCI-60 one-dose screen, 48 h (100 = growth as untreated, 0 = no growth, -100 = all killed)
TEST CONTEXT: 10 µM unless noted
Compounds without any hit were thinned out: in the full panel of roughly 83,000, 20% have a hit.
Listing of entries alongside the reported growth.
MEASUREMENT TYPE: growth (%)

[
  {
    "COMPOUND": "C#Cc1cccc(Nc2ncnc3cc(OC)c(OCCCCCCC(=O)NO)cc23)c1",
    "TARGET": "NCI/ADR-RES ovarian",
    "MEASUREMENT UNITS": "%",
    "READOUT VALUE": 14.4
  },
  {
    "COMPOUND": "COc1ccc(-n2c(=O)c3ccccc3n(Cc3ccc(C(=O)NO)cc3)c2=O)cc1",
    "TARGET": "NCI/ADR-RES ovarian",
    "MEASUREMENT UNITS": "%",
    "READOUT VALUE": 70.2
  },
  {
    "COMPOUND": "Cc1ccc(NC(=O)NC(=O)CSc2nc3ccccc3nc2C)cc1",
    "TARGET": "NCI/ADR-RES ovarian",
    "MEASUREMENT UNITS": "%",
    "READOUT VALUE": 40.6
  },
  {
    "COMPOUND": "O=C1C=CC2(NN=C(c3ccccc3)N2c2cccc(Cl)c2)C(Cl)=C1 (stereo not given)",
    "TARGET": "NCI/ADR-RES ovarian",
    "MEASUREMENT UNITS": "%",
    "READOUT VALUE": 89.7
  },
  {
    "COMPOUND": "CCc1cnn2c(NCc3ccc[n+]([O-])c3)cc(N3CCCC[C@H]3CCO)nc12",
    "TARGET": "NCI/ADR-RES ovarian",
    "MEASUREMENT UNITS": "%",
    "READOUT VALUE": -0.875
  },
  {
    "COMPOUND": "O=C(COc1ccc(/C=C2\\Cc3ccc(Cl)cc3C2=O)cc1)Nc1nccs1",
    "TARGET": "NCI/ADR-RES ovarian",
    "MEASUREMENT UNITS": "%",
    "READOUT VALUE": 86.7
  },
  {
    "COMPOUND": "CN1CCN(c2nc(NCCNc3ccnc4cc(Cl)ccc34)c3ccccc3n2)CC1",
    "TARGET": "NCI/ADR-RES ovarian",
    "MEASUREMENT UNITS": "%",
    "READOUT VALUE": 85.5
  },
  {
    "COMPOUND": "Cc1cc2c(-c3nc4ccccn4c3NC3CCCCC3)c(O)c(O)cc2c(O)c1-c1c(C)cc2c(-c3nc4ccccn4c3NC3CCCCC3)c(O)c(O)cc2c1O",
    "TARGET": "NCI/ADR-RES ovarian",
    "MEASUREMENT UNITS": "%",
    "READOUT VALUE": 71.9
  },
  {
    "COMPOUND": "O=C(CNc1nnc(-c2ccc(Cl)cc2)o1)Nc1ccc(-c2nc3ccccc3s2)cc1",
    "TARGET": "NCI/ADR-RES ovarian",
    "MEASUREMENT UNITS": "%",
    "READOUT VALUE": 98.9
  },
  {
    "COMPOUND": "CCN1CCN(c2nc(C)cc(N(CCCNc3ccnc4cc(Cl)ccc34)Cc3ccc4c(c3)OCO4)n2)CC1",
    "TARGET": "NCI/ADR-RES ovarian",
    "MEASUREMENT UNITS": "%",
    "READOUT VALUE": 30.2
  }
]
